Entries and their IC50
- Experimental target: C-C chemokine receptor type 5 (Homo sapiens)
- Sequence (P51681 whole entry): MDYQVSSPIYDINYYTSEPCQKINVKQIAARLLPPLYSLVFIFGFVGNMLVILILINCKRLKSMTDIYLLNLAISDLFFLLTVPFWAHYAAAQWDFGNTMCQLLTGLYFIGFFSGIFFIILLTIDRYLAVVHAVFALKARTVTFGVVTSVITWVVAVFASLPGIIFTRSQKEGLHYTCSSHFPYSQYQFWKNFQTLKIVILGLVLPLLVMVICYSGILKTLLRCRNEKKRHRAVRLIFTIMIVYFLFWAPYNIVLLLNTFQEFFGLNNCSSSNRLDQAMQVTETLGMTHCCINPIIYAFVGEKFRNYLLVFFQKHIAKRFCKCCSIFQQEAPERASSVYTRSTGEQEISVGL
- Test summary: Antagonist activity at human TEV cleavage site-linked CCR5 expressed in human U2OS cells harboring beta-lactamase reporter gene assessed as inhibition of CCL3-induced beta-arrestin recruitment incubated for 30 mins followed by CCL3 stimulation and measured after 16 hrs by Tango assay
- Type: cell-based
- Reported conditions: read-out: pIC50 (converted)
Express your answer in nM, writing the number without its unit.

Record excerpt, results attached:
>  <Structure string>
CCCCc1[nH]c2nc(N)nn2c(=O)c1Cc1cccc(Cl)c1

>  <IC50 (nM)>
513

$$$$
>  <Structure string>
Nc1nc2[nH]c(C3CC3)c(Cc3ccc(Cl)c(Cl)c3)c(=O)n2n1

>  <IC50 (nM)>
214

$$$$
>  <Structure string>
CC(C)c1[nH]c2nc(N)nn2c(=O)c1Cc1ccc(Cl)c(Cl)c1

>  <IC50 (nM)>
123

$$$$
>  <Structure string>
CC(C)c1[nH]c2nc(N)nn2c(=O)c1Cc1cccc(Cl)c1Cl

>  <IC50 (nM)>
81.3

$$$$
>  <Structure string>
CC(C)c1[nH]c2nc(N)nn2c(=O)c1Cc1ccc(Cl)c(Br)c1

>  <IC50 (nM)>
112

$$$$

Attention now turns to another entry.
State the recorded IC50 for this entry: CC(C)c1[nH]c2nc(N)nn2c(=O)c1Cc1cccc(Cl)c1
275
